# assayed target: 12-lipoxygenase (Rattus norvegicus, UniProt F1LQ70)
# Construct: Washed platelet was prepared in the usual way; from tissue; host or cells: rat blood platelets (Method 1: washed platelets; Method 2: frozen, thawed and ultrasonified platelets; Method 3: platelet soluble fraction after freeze-thaw and centrifugation)
# protocol description: 12-lipoxygenase inhibitory activity, Method 1 (washed rat platelet, 12-HETE production)
# Format: biochemical
# assay conditions: sample compound 10 μM, 3 to 5 minutes at 37° C., control without sample compound = 100%, read-out: production index of 12-HETE, Method 1 (%)
metric name: activity at 10 µM (%)

* O=c1cc(-c2ccccc2)oc2cc(O)c(O)c(O)c12 [Baicalein, baicalein, reference compound] | 27
* CCOC(=O)C(C#N)=Cc1ccc(O)c(O)c1 | 38.1
* COC(=O)C(C#N)=Cc1ccc(O)c(O)c1 | 36
* CC(C)OC(=O)C(C#N)=Cc1ccc(O)c(O)c1 | 31.4

###

# assayed target: 12-lipoxygenase (Rattus norvegicus, UniProt F1LQ70)
# Construct: Washed platelet was prepared in the usual way; from tissue; host or cells: rat blood platelets (Method 1: washed platelets; Method 2: frozen, thawed and ultrasonified platelets; Method 3: platelet soluble fraction after freeze-thaw and centrifugation)
# protocol description: 12-lipoxygenase inhibitory activity, Method 2 (ultrasonified rat platelet enzyme solution, 12-HETE production)
# Assay type: biochemical
# assay conditions: 5 min, sample compound 1 μM, arachidonic acid 4.3 μM, 5 minutes at 37° C., control without sample compound = 100%, read-out: production index of 12-HETE, Method 2 (%)
# Protocol: The 12-lipoxygenase inhibitory activity of the compounds of the present invention was measured by conducting the three types of pharmacological tests described below. Citrated blood was collected from the heart of a rat and platelet-rich plasma was prepared in the usual way. The plasma was washed twice with isotonic buffer solution (A) [134 mM NaCl, 5 mM D-glucose, 1 mM EDTA, 1 mM EGTA, 15 mM Tris-HCl (pH=7.4)], frozen and stored at -80° C. […]
metric name: activity at 1 µM (%)

Example compounds with recorded activity at 1 µM:
* N#CC(=Cc1ccc(O)c(O)c1)C(=O)OCCOc1ccccc1 | 8.5
* N#CC(=Cc1ccc(O)c(O)c1)C(=O)OCC=Cc1ccccc1 | 13.2
* N#CC(=Cc1ccc(O)c(O)c1)C(=O)OCCCc1ccccc1 | 12.1

(a) N#CC(=Cc1ccc(O)c(O)c1)C(=O)OCCc1cccs1
(b) N#CC(=Cc1ccc(O)c(O)c1)C(=O)OCCCCc1ccccc1
Field: lower activity at 1 µM | Options: a / b Use the label to indicate which entry you chose.
a
(a: 8.7%, b: 14.2%)

###

# assayed target: 12-lipoxygenase (Rattus norvegicus, UniProt F1LQ70)
# Construct: Washed platelet was prepared in the usual way; from tissue; host or cells: rat blood platelets (Method 1: washed platelets; Method 2: frozen, thawed and ultrasonified platelets; Method 3: platelet soluble fraction after freeze-thaw and centrifugation)
# Sequence (F1LQ70 1-663): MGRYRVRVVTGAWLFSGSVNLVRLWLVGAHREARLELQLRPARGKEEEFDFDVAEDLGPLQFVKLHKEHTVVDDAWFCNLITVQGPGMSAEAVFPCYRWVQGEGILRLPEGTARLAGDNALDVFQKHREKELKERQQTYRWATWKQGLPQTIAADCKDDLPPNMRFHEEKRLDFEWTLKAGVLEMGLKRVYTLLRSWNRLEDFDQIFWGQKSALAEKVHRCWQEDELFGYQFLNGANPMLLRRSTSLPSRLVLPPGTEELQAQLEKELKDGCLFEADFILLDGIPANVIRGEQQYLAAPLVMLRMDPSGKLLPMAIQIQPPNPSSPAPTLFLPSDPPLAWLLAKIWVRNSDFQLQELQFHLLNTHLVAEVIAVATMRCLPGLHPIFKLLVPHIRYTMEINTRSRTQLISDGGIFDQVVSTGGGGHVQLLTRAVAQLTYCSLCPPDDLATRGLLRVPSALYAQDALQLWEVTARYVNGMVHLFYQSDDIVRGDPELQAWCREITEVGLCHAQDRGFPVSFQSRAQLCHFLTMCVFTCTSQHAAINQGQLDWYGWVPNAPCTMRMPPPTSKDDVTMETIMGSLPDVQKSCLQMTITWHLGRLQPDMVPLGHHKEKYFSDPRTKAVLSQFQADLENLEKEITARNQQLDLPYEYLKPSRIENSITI
# protocol description: 12-lipoxygenase inhibitory activity, Method 3 (rat platelet soluble fraction, 12-HETE production)
# Type: biochemical
# assay conditions: 5 min, sample compound 10 μM, arachidonic acid 40 μM, 5 minutes at 37° C., control without sample compound = 100%, read-out: production index of 12-HETE, Method 3 (%)
metric name: activity at 10 µM (%)

- O=c1cc(-c2ccccc2)oc2cc(O)c(O)c(O)c12 [Baicalein, baicalein, reference compound]: 22.7
- COc1ccccc1CCOC(=O)C(C#N)=Cc1ccc(O)c(O)c1: 19.1
- COc1ccc(CCOC(=O)C(C#N)=Cc2ccc(O)c(O)c2)cc1: 19.5
- N#CC(=Cc1ccc(O)c(O)c1)C(=O)OCCc1ccccc1: 25.1
